Tested on: Plasmodium falciparum
Experiment: Antiplasmodial activity for Plasmodium falciparum F32
Type: functional
Experimental endpoint: Activity (µM)
One number for each entry, in µM.

Sample answers from the record:
# return recorded Activity for entry "CCCCCCCC/C=C\CCCCCC[C@@H]1C(=O)O[C@@H](C)[C@H]1O"
57.6

# return recorded Activity for entry C=C/C(C)=C/C[C@]1(C)[C@H](C)C[C@H](OC)[C@@]23C(=C[C@H](OC(=O)C(C)CC)C[C@@H]12)C(OC(C)=O)OC3OC(C)=O (stereo partly drawn)
0.58

# return recorded Activity for entry C=C/C(C)=C/C[C@]1(C)[C@H](C)C[C@H](O)[C@@]23C(=C[C@@H](OC(=O)C(C)CC)C[C@@H]12)C(OC(C)=O)OC3OC(C)=O (stereo partly drawn)
0.57

# return recorded Activity for entry C=C/C(C)=C/C[C@]1(C)[C@H](C)C[C@H](OC(=O)c2ccccc2)[C@@]23C(=C[C@H](OC(=O)C(C)CC)C[C@@H]12)C(OC(C)=O)OC3OC(C)=O (stereo partly drawn)
4.66

# return recorded Activity for entry C=C/C(C)=C/C[C@]1(C)[C@H](C)C[C@H](OC)[C@@]2(C=O)C(C=O)=C[C@H](OC(=O)C(C)CC)C[C@@H]12 (stereo partly drawn)
6.04

# return recorded Activity for entry C=C/C(C)=C/C[C@]1(C)[C@H](C)C[C@H](O)[C@@]23C(=C[C@H](OC(=O)C(C)CC)C[C@@H]12)C(OC(C)=O)OC3OC(C)=O (stereo partly drawn)
0.62

# return recorded Activity for entry CCN(CC)CCCC(C)Nc1ccnc2cc(Cl)ccc12 (stereo not drawn) [CHLOROQUINE]
0.06

// below: Activity requested for another compound
# return recorded Activity for entry C=C/C(C)=C/C[C@]1(C)[C@H](C)C[C@H](OC(=O)c2ccccc2)[C@@]23C(=C[C@H](OC(=O)C(C)C)C[C@@H]12)C(OC(C)=O)OC3OC(C)=O (stereo partly drawn)
4.44
